B1: Pistol ribozyme (parent)
chain: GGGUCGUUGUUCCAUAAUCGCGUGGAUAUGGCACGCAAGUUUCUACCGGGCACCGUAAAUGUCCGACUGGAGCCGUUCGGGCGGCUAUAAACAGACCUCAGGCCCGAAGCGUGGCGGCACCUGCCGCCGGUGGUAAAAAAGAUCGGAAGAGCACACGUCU

Variants of: B1
Experiment: aptazyme ON/OFF ratio, guanine; higher = stronger switching; co-transcriptional cleavage with and without guanine
observedProperty: aptazyme ON/OFF ratio
Write the number on its own, no unit after it.

U7G U8A G9U U10A U11A C12A C13A: 1.13
U8G G9U U10A U11C C12G: 1.1
U7C U8A G9A U10A C12G C13U: 1.27
U7G U8C G9A U10A U11G C13U: 1.23

Find the recorded aptazyme ON/OFF ratio belonging to U7A U8G G9C U10G U11C C13U and report it.
1.04

Param item: U7C U8A U10C U11C C12A
1.17

Param item: U8C G9U U11C C12A C13A
1.11

Param item: U7G U8G G9U U10G C13U
1.36

Param item: U8C U10C U11C C12U C13A
1.23

Param item: U7G U8A G9U U10C U11C C13A
1.03

Recorded values, source the RNAGym collection of RNA variant scans (doi:10.1021/acssynbio.7b00057).
